Target: Mitogen-activated protein kinase 11 (Homo sapiens)
Sequence (Q15759 whole entry): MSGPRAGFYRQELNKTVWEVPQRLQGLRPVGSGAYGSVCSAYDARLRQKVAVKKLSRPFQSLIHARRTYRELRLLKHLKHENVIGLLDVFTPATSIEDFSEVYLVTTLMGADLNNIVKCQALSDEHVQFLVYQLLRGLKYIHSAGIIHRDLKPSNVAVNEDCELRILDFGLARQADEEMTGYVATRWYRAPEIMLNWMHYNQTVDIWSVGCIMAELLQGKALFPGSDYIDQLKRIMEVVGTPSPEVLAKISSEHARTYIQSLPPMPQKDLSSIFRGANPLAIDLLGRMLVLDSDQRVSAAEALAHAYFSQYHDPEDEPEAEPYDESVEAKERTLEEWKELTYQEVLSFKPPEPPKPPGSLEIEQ
Assay: Inhibition of p38beta
reported property: Ki (nM)
Kindly answer with a numeric value in nM, unit omitted.

Problem: Consider the compound Cc1ccc(C(=O)NC2CC2)cc1-c1cc2cnn(-c3c(F)cccc3F)c2n(C)c1=O and give its measured Ki.
Solution: 2.5

---

Test: Oral bioavailability in Sprague-Dawley rat at 2 mg/kg
Format: ADME, organism-based
Conditions: in vivo
# bioavailability >= 40% gives Met, anything below gives Not met

1. CNc1noc2c(-c3cc4cnn(-c5c(F)cccc5F)c4n(C)c3=O)c(C)ccc12 | Not met
2. Cc1ccc(C(=O)NC2CC2)cc1-c1cc2cnn(-c3c(F)cccc3F)c2n(C)c1=O | Met
3. Cc1ccc(C(=O)NC2CC2)cc1-c1cc2cnn(-c3ccc(F)cc3F)c2n(C)c1=O | Met
4. Cn1c(=O)c(-c2cc(C(=O)NC3CC3)ccc2Cl)cc2cnn(-c3c(F)cccc3F)c21 | Met
5. Cc1ccc(C(N)=O)cc1-c1cc2cnn(-c3c(F)cccc3F)c2n(C)c1=O | Not met

Problem: Given the entry Cc1ccc(C(=O)NC2CC2)cc1-c1cc2cnn(-c3cc(F)ccc3F)c2n(C)c1=O , answer whether its bioavailability meets or surpasses 40%.
Solution: Not met
